Ref: ChEMBL document CHEMBL3507680

The following compounds are listed with their measured cytotoxicity at 70.5 h values.
Assay: Human HepG2 cell viability assay in 384 well format
Type: toxicity, cell-based
Parameters: dose 125 nL, time 70.5 hour; concentration not given beside the values
Conditions: HepG2 cells, read-out: Inhibition
measure: cytotoxicity at 70.5 h (%)

compound: O=c1cc(N2CCNCC2)cnn1CCc1ccc(F)cc1
measured number: -4.81
//
compound: Cc1cnn(CCNCc2nccn2Cc2ccccc2)c1
measured number: 1.16
//
compound: COc1ncc(C(=O)N2CCCC3(C=Cc4ccccc4O3)CC2)cn1 (centres undefined)
measured number: 13.5
//
compound: CC(C)CC(NC(=O)CN(C)C(=O)c1ccco1)c1cccs1 (centres undefined)
measured number: -9.94
//
compound: Cc1ccccc1OCCN(C)Cc1noc(CC(C)C)n1
measured number: 4.63
//
compound: CC(C)(C)c1c[nH]c([C@@H]2COCCN2C2CCNCC2)n1
measured number: -0.308
//
compound: CC(=O)NCC(=O)NCC1Cn2nnc(-c3cccc(F)c3)c2CO1 (centres undefined)
measured number: -0.435
//
compound: O=C(c1ccccc1F)N1CC2(CCNCC2)c2cc(Cl)ccc21
measured number: -9.74
//
compound: O=C1CCN(C(=O)NCCCc2ccc(Cl)cc2Cl)CCN1
measured number: -7.65
//
compound: Cc1ccccc1S(=O)(=O)N[C@@H]1CC[C@@H](N2CCNC(=O)C2)[C@@H]1O
measured number: -4.42
//
compound: O=C(NC1CC1)[C@H]1[C@@H]2CN(Cc3ccc(-c4ccn[nH]4)s3)C[C@@H]21
measured number: 0.292
//
compound: CCOCCN1CCN(CC(=O)NC2(C#N)CCCC2)CC1CC (centres undefined)
measured number: 0.4
//
compound: N#Cc1cc(NC(=O)c2ccsc2)ccc1N1CCC(O)CC1
measured number: -11.8
//
compound: Cc1cccc(N(CC(=O)N2CCCCC2)Cc2nc(=O)[nH][nH]2)c1
measured number: -0.474

---

Experiment: Human HepG2 cell viability assay in 384 well format
Type: toxicity, cell-based
Design: dose 125 nL, time 70.5 hour; concentration not given beside the values
Settings: HepG2 cells, read-out: Inhibition
measure: cytotoxicity at 70.5 h (%)

molecule: Cc1cnn(CC2CCCCN2Cc2cc(C)on2)c1 (centres undefined)
measured number: -18.5

molecule: CNC(=O)NC(=O)C(C)N(C)CCCc1cc(-c2ccccc2)no1 (centres undefined)
measured number: -1.15

molecule: Cn1cc(C(=O)N2CCCC(Cc3cncc4ccccc34)C2)cn1 (centres undefined)
measured number: -1.78

molecule: CC(=O)N1CCC(CCNC(C)c2cc(F)cc(F)c2)CC1 (centres undefined)
measured number: -3.81

molecule: Cn1cc(CN(C/C=C/c2ccccc2)C2CC2)cn1
measured number: -8.38

molecule: COc1ncccc1NC(=O)NC1CCCN(c2ncccn2)C1 (centres undefined)
measured number: 1.22

molecule: CC(NC(=O)NCc1cccnc1N1CCCCC1)c1nccs1 (centres undefined)
measured number: -4.81

molecule: COc1ncccc1CNC(=O)CN1CCCCCC1=O
measured number: -16.5

molecule: Cc1oc(-c2ccsc2)nc1CN1CCCC(c2ccnn2C)C1 (centres undefined)
measured number: -23.6

molecule: Cc1ccccc1CN1CCC(CNC(=O)Cn2cncn2)CC1
measured number: 13.8

molecule: Cc1ccc(CN2CCc3nnc(CN4CCCC4=O)n3CC2)o1
measured number: -3.79

molecule: CCCNC(c1cccnc1)c1ccc(F)cc1F (centres undefined)
measured number: 42.9

molecule: CN(C)S(=O)(=O)N1CCCC1CC(=O)c1cccs1 (centres undefined)
measured number: -9.51

molecule: CC(=O)c1ccc(C(=O)N(C)Cc2nc(-c3ccccn3)no2)s1
measured number: 8.57

molecule: Cc1noc(C2CCCN(C(=O)c3ccc(N(C)C)nc3)C2)n1 (centres undefined)
measured number: -8.13

molecule: COc1ccc(C(C(=O)O)N2CCC(Cn3cccn3)CC2)cc1F (centres undefined)
measured number: 22.7

molecule: CCOCC1CN(C(=O)c2cnoc2C)Cc2cnn(C)c21 (centres undefined)
measured number: -12.5

molecule: CS(=O)(=O)NCC1CCCN(C(=O)c2ccc3c(c2)CCCC3)C1 (centres undefined)
measured number: 5.26

molecule: CCn1ccc(-c2cc(NCCCOc3cccc(C)c3)nc(C)n2)n1
measured number: -6.25

molecule: Fc1cccc(-c2nc(CN3CCCCC3Cn3cncn3)co2)c1 (centres undefined)
measured number: -15.4

molecule: Cc1ccc(NC(=O)c2cc(S(=O)(=O)N3CCCCC3)c[nH]2)cc1F
measured number: -8.62

molecule: CCO[C@H]1CN(CC2CCOCC2)[C@@H]2CCCO[C@H]12
measured number: 9.78

molecule: COCCn1ccc(NCc2scnc2C)n1
measured number: -8.55

molecule: CCOC(C)c1nc(CN2CCC(CNC(C)=O)CC2)cs1 (centres undefined)
measured number: -2.36

molecule: NC(=O)c1cnc2n1CCN(C(=O)c1ccc(-c3cc[nH]n3)cc1)C2
measured number: -10.3

molecule: Cc1nc(NCc2cccc(F)c2)cc(C2CCNCC2)n1
measured number: 0.802

molecule: O=C(N1CCCC1)N1CCn2c(Cn3cccn3)cnc2C1
measured number: -0.231

molecule: O[C@@]1(CNCCCOc2cccnc2)CCCN2CCCC[C@@H]21
measured number: 5.47

molecule: COCCNC(=O)[C@H]1C[C@@H]2CCN(Cc3nccs3)C[C@H]2O1
measured number: -13.5
